assay: qHTS assay to identify small molecule agonists of the hypoxia (HIF-1) signaling pathway - cell viability counter screen (AID 1224844); conditions: HRE-bla ME-180 viability, CellTiter-Glo luminescence, 17 h; series mostly up to 76.8 µM; also: nearly all actives have a fitted effect of over 50% in size
Inconclusive results are not listed. Active and inactive are the calls of the source. Calls follow the shape of the full dose curve.
Hi! Could you answer with just one of these? t for active, f for inactive

Below, 4 molecules whose answers are already recorded.
{"columns": ["molecule", "category.label"],
 "data": [
  ["CC(C)CC(C)(c1ccc(O)cc1)c1ccc(O)cc1", "f"],
  ["Oc1ccccc1Br", "f"],
  ["C[As+](C)(C)CC(=O)[O-]", "f"],
  ["CC(C)[C@H](C(=O)OC(C#N)c1cccc(Oc2ccccc2)c1)c1ccc(OC(F)F)cc1 (some centres undefined)", "f"]
]}

// outcome(item) with item = CCS(=O)(=O)c1cccnc1S(=O)(=O)NC(=O)Nc1nc(OC)cc(OC)n1 f

// outcome(item) with item = Cc1ccc(OP(=O)(Oc2ccccc2)Oc2ccccc2)cc1 f

// outcome(item) with item = Cc1cc(N=Nc2ccccc2C)ccc1N f

// outcome(item) with item = N#Cc1ccc(O)cc1 f

// outcome(item) with item = CCC[CH2][Sn]([CH2]CCC)([CH2]CCC)[O]C(=O)c1ccccc1 t

// outcome(item) with item = COc1cc(C=O)cc2c1[C@H](COC(N)=O)[C@]1(OC(C)=O)ON2C[C@H]2[C@@H]1N2C(C)=O t

// outcome(item) with item = COc1ccc(OC)c(C=O)c1 f

// outcome(item) with item = NC(=O)c1ccc(N)nc1 t

// outcome(item) with item = Clc1ccc(-c2ccccc2)cc1 f

// outcome(item) with item = Cn1cc(C2=C(c3cn(C4CCN(Cc5ccccn5)CC4)c4ccccc34)C(=O)NC2=O)c2ccccc21 f

// outcome(item) with item = O=c1[nH]c2ccccc2n1CCCN1CCC(n2c(=O)[nH]c3cc(Cl)ccc32)CC1 f

// outcome(item) with item = CC(C)C(=O)Cl f

// outcome(item) with item = Oc1c(Br)c(Br)c(Br)c(Br)c1Br t

// outcome(item) with item = CCCCCCCCCC[N+](C)(C)CCCCCCCCCC t

// outcome(item) with item = CCCCCCCCCCCCCCCCCCn1cc[n+](C)c1 t

// outcome(item) with item = CC1(C)[C@H](C(=O)O[C@H](C#N)c2cccc(Oc3ccccc3)c2)[C@@H]1/C=C(\Cl)C(F)(F)F f

// outcome(item) with item = CC(O)C#N (centres undefined) f

---

test: qHTS assay for identifying genotoxic compounds that show differential cytotoxicity against isogenic chicken DT40 cell lines with known DNA damage response pathways - Rad54/Ku70 mutant cell line (AID 743015); conditions: DT40 Rad54/Ku70 mutant viability, CellTiter-Glo, 40 h; series mostly up to 66.8 µM; also: nearly all actives have a fitted effect of over 60% in size
Records with an inconclusive call do not appear. The source made the active and inactive calls. Calls follow the shape of the dose curve; as a rule, active = well fitted cell-killing curve with a large enough effect in the repeat runs; inconclusive = weak or mixed curves; inactive = no such curve, though single readings can be large or run the other way.
Hi! Could you answer with just one of these? TRUE for active, FALSE for inactive

Below, 5 compounds whose answers are already recorded.
{"columns": ["compound", "category.label"],
 "data": [
  ["CC(C)C1CCC(Cc2ccc(Cl)cc2)C1(O)Cn1cncn1 (stereo unspecified)", "TRUE"],
  ["CC(=O)O[C@H]1CC[C@@]2(C)C(=CC[C@@H]3[C@@H]2CC[C@]2(C)C(=O)CC[C@@H]32)C1", "FALSE"],
  ["C[C@@H]1CC[C@@]2(OC1)O[C@H]1[C@@H](O)[C@H]3[C@@H]4CC[C@H]5C[C@@H](O[C@@H]6O[C@H](CO)[C@H](O[C@@H]7O[C@H](CO)[C@@H](O)[C@H](O[C@@H]8OC[C@@H](O)[C@H](O)[C@H]8O)[C@H]7O[C@@H]7O[C@H](CO)[C@@H](O)[C@H](O[C@@H]8O[C@H](CO)[C@@H](O)[C@H](O)[C@H]8O)[C@H]7O)[C@H](O)[C@H]6O)[C@H](O)C[C@]5(C)[C@H]4CC[C@]3(C)[C@H]1[C@@H]2C", "TRUE"],
  ["CC(C)CC(C)N (stereo unspecified)", "FALSE"],
  ["CC(C)(O)c1cnn2c(-c3ccc(F)c(-c4c(F)cccc4C#N)c3)cnc2n1", "TRUE"]
]}

Continue with the compound presented below.
// outcome(item) with item = O=[N+]([O-])O.O=[N+]([O-])O.[Cd] TRUE

---

target: Estrogen receptor beta (Homo sapiens); assay: qHTS assay to identify small molecule agonists of the estrogen receptor beta (ER-beta) signaling pathway (AID 1259377); conditions: ER-beta-UAS-bla HEK293T, beta-lactamase FRET ratio, 16 h; series mostly up to 92.4 µM
Inconclusive results are not listed. Activity calls are given as the source filed them. Calls follow the shape of the dose curve; as a rule, active = well fitted activation curve with a large enough effect in the signal ratio in the repeat runs (not every such curve was filed as active); inconclusive = weak or mixed curves, or effect the other way; inactive = flat fitted curve, though single readings scatter; the % refers to the signal ratio.
Hi! Could you answer with just one of these? active, inactive

Below, 5 compounds whose answers are already recorded.
{"columns": ["compound", "tested.on", "category.label"],
 "data": [
  ["c1ccc(OCC2CO2)cc1 (stereo unspecified)", "Estrogen receptor beta (Homo sapiens)", "inactive"],
  ["OC(Cc1ccccc1Cl)(Cn1cncn1)C1(Cl)CC1 (stereo unspecified)", "Estrogen receptor beta (Homo sapiens)", "inactive"],
  ["CC(C)[C@H](C(=O)OC(C#N)c1cccc(Oc2ccccc2)c1)c1ccc(OC(F)F)cc1 (stereo partly specified)", "Estrogen receptor beta (Homo sapiens)", "inactive"],
  ["N#Cc1ccccc1N", "Estrogen receptor beta (Homo sapiens)", "inactive"],
  ["CCCCOP(=O)(CCCC)OCCCC", "Estrogen receptor beta (Homo sapiens)", "inactive"]
]}

// outcome(item) with item = COC[C@H](C)N(C(=O)CCl)c1c(C)csc1C inactive

// outcome(item) with item = C[C@]12CC[C@@H]3c4ccc(OC(=O)N(CCCl)CCCl)cc4CC[C@H]3[C@@H]1CC[C@@H]2O active

// outcome(item) with item = O=S(=O)(c1ccc(Cl)cc1)c1ccc(Cl)cc1 inactive

// outcome(item) with item = COCC(=O)N(c1c(C)cccc1C)[C@H](C)C(=O)OC inactive

// outcome(item) with item = O=C(CBr)c1ccc(O)cc1 inactive

// outcome(item) with item = O=C(CCCN1CCC2(CC1)C(=O)NCN2c1ccccc1)c1ccc(F)cc1 inactive

---

test: qHTS assay to identify small molecule agonists of the estrogen receptor alpha (ER-alpha) signaling pathway in the presence of an antagonist - cell viability counter screen (AID 1259386); conditions: VM7Luc4E2 viability, CellTiter-Fluor fluorescence, 22 h; series mostly up to 92.4 µM;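 also: cells exposed to compounds for 22 h at 37 °C before the viability read; nearly all actives have a fitted effect of over 30% in size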; also: potency is read from the fitted curve at half-maximal effect
Records with an inconclusive call do not appear. Active and inactive are the calls of the source. The call rests on the fitted dose curve; in most records, active means well fitted cell-killing curve with a large enough effect in the repeat runs; inconclusive means weak or mixed curves, or effect the other way; inactive means no such curve, though single readings can be large or run the other way.
measure.name: Potency

{"columns": ["compound", "Potency"],
 "data": [
  ["COC[C@H](C)N(C(=O)CCl)c1c(C)csc1C", "inactive"],
  ["CN(C)CCc1c[nH]c2ccc(O)cc12", "inactive"],
  ["CC(=O)[O-].[Tl+]", "inactive"],
  ["Clc1ccc(C(Cl)(Cl)Cl)c(Cl)c1", "inactive"],
  ["CCN(CC)C(=S)[S-].CCN(CC)C(=S)[S-].[Zn+2]", "12.1 µM (active)"],
  ["COP(=S)(OC)Oc1cc(Cl)c(Br)cc1Cl", "inactive"],
  ["CCOP(=S)(OCC)OC(Cl)C(Cl)(Cl)Cl (centres undefined)", "inactive"],
  ["ClC1=C(Cl)[C@]2(Cl)[C@@H]3[C@@H]4C[C@@H]([C@H]5O[C@@H]45)[C@@H]3[C@@]1(Cl)C2(Cl)Cl", "inactive"]
]}

Let us examine a further case.
Give its Potency value. Item: C[C@H]1CC[C@@H]2[C@@H](C)[C@H]3[C@H](C[C@H]4[C@@H]5CC=C6CC(O[C@@H]7O[C@H](CO)[C@H](O)[C@H](O[C@@H]8O[C@H](CO)[C@@H](O)[C@H](O)[C@H]8O)[C@H]7O[C@H]7O[C@@H](C)[C@H](O)[C@@H](O)[C@H]7O)CC[C@]6(C)[C@H]5CC[C@]34C)N2C1 (some centres undefined) 28.2 µM (active)

---

assay: qHTS assay for identifying genotoxic compounds that show differential cytotoxicity against isogenic chicken DT40 cell lines with known DNA damage response pathways - wild type cell line (AID 743012); settings: DT40 wild type chicken cells viability, CellTiter-Glo, 40 h; series mostly up to 68.4 µM; also: nearly all actives have a fitted effect of over 60% in size; also: potency is read from the fitted curve at half-maximal effect
Inconclusive results are not listed. The source made the active and inactive calls. The call rests on the fitted dose curve; in most records, active means well fitted cell-killing curve with a large enough effect in the repeat runs; inconclusive means weak or mixed curves, or effect the other way; inactive means no such curve, though single readings can be large or run the other way.
measure.name: Potency

See these solved cases before continuing.
{"columns": ["smiles.input", "Potency"],
 "data": [
  ["CC(=O)c1cc(C(C)(C)C)cc2c1CCC2(C)C", "inactive"],
  ["CCCCCCCCCCCCCCCCCCn1cc[n+](C)c1", "1.21 µM (active)"],
  ["C[C@]12CC[C@H]3[C@@H](CCC4=CC(=O)CC[C@@]43C)[C@@H]1CC[C@@H]2O", "54.1 µM (active)"],
  ["CCN(CC)c1c([N+](=O)[O-])cc(C(F)(F)F)c(N)c1[N+](=O)[O-]", "19.3 µM (active)"]
]}

Give its Potency value. Item: COc1ccc(N)cc1N 11.7 µM (active)

Give its Potency value. Item: CCCCN(CCCC)C(=S)[S-].CCCCN(CCCC)C(=S)[S-].[Zn+2] inactive

These measurements were taken from PubChem BioAssay (Tox21).
